These measurements were taken from patent US11453647B2.

Known IC50 of a selection of molecules
target: human A2A receptor (Homo sapiens); construct: expressed in transfected cells; host or cells: HEK293; assay: functional cAMP (HTRF) assay, recombinant HEK293 cells expressing human A2A receptor, agonist NECA; assay type: cell-based
Sequence (P29274 whole entry): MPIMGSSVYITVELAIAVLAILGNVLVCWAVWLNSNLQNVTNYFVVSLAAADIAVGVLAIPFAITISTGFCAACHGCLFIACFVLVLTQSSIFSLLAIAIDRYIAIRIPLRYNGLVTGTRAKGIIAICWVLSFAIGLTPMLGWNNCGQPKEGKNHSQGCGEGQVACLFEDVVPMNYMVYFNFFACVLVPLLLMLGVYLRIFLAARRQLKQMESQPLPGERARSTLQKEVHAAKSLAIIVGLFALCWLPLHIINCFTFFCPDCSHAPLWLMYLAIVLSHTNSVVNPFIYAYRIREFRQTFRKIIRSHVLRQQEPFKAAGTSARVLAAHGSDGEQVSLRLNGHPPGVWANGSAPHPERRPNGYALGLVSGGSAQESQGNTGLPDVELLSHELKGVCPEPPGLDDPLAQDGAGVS

molecule	tested system	reported result
COc1ccc(-c2ccccc2)c2nc(NC(=O)N3CCC(C)(O)CC3)[nH]c12 [compound 12]	human A2A receptor (Homo sapiens)	< 10 nM
COc1ccc(-c2cn[nH]c2)c2nc(NC(=O)N3CCC(C)(O)CC3)[nH]c12 [compound 79]	human A2A receptor (Homo sapiens)	< 100 nM
COc1ccc(-c2cnn(CC(C)(C)O)c2)c2[nH]c(NC(=O)N3CCC(C)(O)CC3)nc12 [compound 238]	human A2A receptor (Homo sapiens)	< 100 nM
COc1ccc(-c2ccccc2)c2nc(NC(=O)c3ccc(N4CCOCC4)nc3)[nH]c12 [compound 8]	human A2A receptor (Homo sapiens)	< 10 nM
COc1ccc(-c2cccc3cc[nH]c23)c2nc(NC(=O)N3CCC(C)(O)CC3)[nH]c12 [compound 305]	human A2A receptor (Homo sapiens)	< 100 nM

**Query** Give the reported IC50 for COc1ccc(-c2cnn(C)c2)c2nc(NC(=O)c3ccnc(N4CC[C@@](C)(O)C4)c3)[nH]c12 [compound 107] (system: human A2A receptor (Homo sapiens)).
**Result** < 10 nM

**Query** Also need COc1ccc(-c2cnn(C)c2)c2nc(NC(=O)c3ccc(N4C(=O)CCC4=O)cc3)[nH]c12 [compound 248] , thanks.
**Result** < 10 nM

**Query** Also need COCCn1cc(C(=O)Nc2nc3c(C4CCOCC4)ccc(OC)c3[nH]2)cn1 [compound 225] , thanks.
**Result** < 10 nM
